assay: optical density shifts of acrAB sulA E. coli – strain DRC41, OD650, 48 h, E. coli filamentation inducer project, primary screen (AID 1152); settings: higher = more signal, called active from +8 up or from −8 down;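 further: E. coli MC1000 strain DRC41 lacking acrAB efflux pump and sulA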
Decide by z-score: equal to or exceeding 0.05 means yes, less means no.

Is z-score at least 0.05? Consider C=C(/C(=C/C[C@@H](OC(C)=O)c1cccc(OCCO)c1)c1cnc2ccccc2c1)C(C)C
yes

Is z-score at least 0.05? Consider CCOC(=O)C[C@H]1[C@H](OC(=O)Cc2ccc3c(c2)OCO3)[C@@H](NC(=O)Cc2ccc(OC)cc2)c2cc(OCCCO)ccc2N1C(=O)Cc1ccc(OC)cc1
yes

Is z-score at least 0.05? Consider COCCOC(=O)N1C(=O)[C@@]2(c3cc(C#CCC(C(=O)OC)C(=O)OC)ccc31)[C@H](c1ccc(O)cc1)N1[C@H](c3ccccc3)[C@H](c3ccccc3)OC(=O)[C@H]1[C@@H]2C(=O)Nc1nc2ccccc2s1
yes

Is z-score at least 0.05? Consider O=C1O[C@@H](c2ccccc2)[C@@H](c2ccccc2)N2[C@@H](c3ccccc3OCCO)[C@]3(C(=O)Nc4ccc(C#CCCO)cc43)[C@@H](C(=O)NC[C@H](O)c3ccccc3)[C@H]12
yes

Is z-score at least 0.05? Consider COC(=O)[C@@]1(Cc2ccccc2)[C@H]2c3cc(C(=O)N(C)C)n(CCSC(=N)N)c3C[C@H]2CN1C(=O)c1ccccc1
no

Is z-score at least 0.05? Consider COc1ccc([Si](C)(C)[C@H]2[C@H](CCO)O[C@@]3(C(=O)N(Cc4cccc(N5C(=O)c6ccccc6Oc6ccccc65)c4)c4ccccc43)[C@@H]2C)cc1
yes

Is z-score at least 0.05? Consider COc1ccc([Si](C)(C)[C@H]2[C@H](CCO)O[C@@]3(C(=O)N(Cc4ccc(NC(=O)[C@H](C)O)cc4)c4ccccc43)[C@@H]2C)cc1
yes

Is z-score at least 0.05? Consider O=C1O[C@H](c2ccccc2)[C@H](c2ccccc2)N2[C@H]1[C@@H](C(=O)O)[C@]1(C(=O)Nc3ccc(C#CCCO)cc31)[C@H]2c1ccc(OCCO)cc1
yes

Is z-score at least 0.05? Consider NC(=O)N1C(=O)C2C(C1=O)C1C=C(CCCO)C2C(C2CC2)N1Cc1sc2ccccc2c1Cl (stereo unspecified)
yes

Is z-score at least 0.05? Consider CCCC[C@H]1OB(O)C[C@H]2C1=C(COc1ccccc1)C[C@H]1C(=O)C=CC(=O)[C@H]12
yes

Is z-score at least 0.05? Consider C=CCOC(=O)[C@H]1[C@@H]2C(=O)O[C@@H](c3ccccc3)[C@@H](c3ccccc3)N2[C@@H](c2ccc(OCCOC(=O)[C@H]3C[C@H]4C(=O)N[C@@H](CC(C)C)C(=O)N4[C@H]3c3ccc(O)cc3)cc2)[C@]12C(=O)Nc1ccccc12
yes

Is z-score at least 0.05? Consider C=CCC(OC(C)=O)[C@@H]1[C@@H](N(Cc2ccc(-c3cccc(C(F)(F)F)c3)o2)C(=O)c2ccc(-c3ccccc3)cc2)c2cc(OCCCO)ccc2N1C(=O)c1ccc2ccccc2c1 (stereo partly specified)
no

Is z-score at least 0.05? Consider C=CCC(OC(C)=O)[C@@H]1[C@@H](N(Cc2cccc3ccccc23)C(=O)c2ccc(-c3ccccc3)cc2)c2cc(OCCCO)ccc2N1C(=O)Cc1ccc2ccccc2c1 (stereo partly specified)
no

Is z-score at least 0.05? Consider COCCOC(=O)N1C(=O)[C@@]2(c3cc(C#CCCO)ccc31)[C@H](c1ccc(OCCO)cc1)N1[C@H](c3ccccc3)[C@H](c3ccccc3)OC(=O)[C@H]1[C@@H]2C(=O)N1CCCCCCC1
no

Is z-score at least 0.05? Consider COc1ccc([Si](C)(C)[C@H]2[C@H](CC(=O)N3Cc4ccccc4C[C@H]3CO)O[C@@]3(C(=O)N(C)c4ccccc43)[C@@H]2C)cc1
no

Is z-score at least 0.05? Consider CCCN1C(=O)[C@]2(CCC(=O)OC(C)(C)C)N=C(c3ccc(OCCCO)cc3)O[C@@H]2c2ccccc21
yes

Is z-score at least 0.05? Consider CC[C@@H]1C=C(C(=O)O)[C@H](c2ccc(OC)cc2)N1S(=O)(=O)c1ccc(C)cc1
no

Is z-score at least 0.05? Consider O=C(NCc1ccccc1)[C@@H]1c2ccccc2C(=O)N(Cc2cc(C(F)(F)F)cc(C(F)(F)F)c2)[C@H]1c1ccc(CO)cc1
no

Is z-score at least 0.05? Consider CC1=C([C@H](O)CCc2ccccc2)[C@H](CO)n2c(=O)n(-c3ccccc3)c(=O)n2C1
yes

Is z-score at least 0.05? Consider C=CCC(OC(C)=O)[C@@H]1[C@@H](N(Cc2ccc(-c3ccccc3)cc2)C(=O)c2cccc3ccccc23)c2cc(OCCCO)ccc2N1C(=O)Cc1ccc(OC)cc1 (stereo partly specified)
no

Is z-score at least 0.05? Consider O=C(NC1CC1)[C@@H]1c2ccccc2C(=O)N(Cc2cc(C(F)(F)F)cc(C(F)(F)F)c2)[C@H]1c1ccc(CO)cc1
no

Is z-score at least 0.05? Consider COCCCNC(=O)[C@@]1(CCC(=O)OC(C)(C)C)COC(c2ccc(OCCCO)cc2)=N1
yes

Is z-score at least 0.05? Consider O=C1C[C@@](C(=O)NCc2ccccc2)(c2ccc([N+](=O)[O-])cc2)[C@@H](c2ccc(CO)cc2)N1C1CCCCC1
yes

Is z-score at least 0.05? Consider [N-]=[N+]=Nc1ccccc1C[C@@]1(C(=O)NCc2ccccc2)N=C(c2ccc(OCCCO)cc2)O[C@@H]1c1ccccc1N=[N+]=[N-]
no

Is z-score at least 0.05? Consider COCCCNC(=O)[C@@]1(CCS(=O)(=O)c2ccccc2)COC(c2ccc(OCCCO)cc2)=N1
yes

Is z-score at least 0.05? Consider COC(=O)[C@@]1(Cc2ccccc2)[C@H]2c3cc(C(=O)N4CCCC4)n(Cc4ccc(OC)c(OC)c4)c3C[C@H]2CN1C(=O)c1ccccc1
no
